The measured values listed here are drawn from the supplement of paper PMC10646978.

Tested on: RAW-Dual (murine macrophage reporter line)
PROCEDURE SUMMARY: viability score (confluency relative to resting cells, overnight) (fraction); higher = more viable, active = viable (0.7 or more)
ASSAY CONTEXT: modulator concentration 10 µM
ENDPOINT: viability score
API doc: respond with a numeric literal and nothing else, no unit.

Enquiry: Can you look up viability score on RAW-Dual (murine macrophage reporter line) for CS(=O)(=O)C1CC2CCC(C1)N2C(=O)c1cccc(Oc2ccc(F)cc2)c1 (configuration not stated) ?
Return: 0.99

Enquiry: Form field - read-out: viability score; system: RAW-Dual (murine macrophage reporter line); submitted item: COC(=O)CNC(c1ccccc1)c1cc(Br)ccc1NC(=O)c1ccccc1Cl (configuration not stated)
Return: 1.01

Enquiry: Record lookup: for RAW-Dual (murine macrophage reporter line), what viability score belongs to O=S1(=O)CCC(NCc2ccccc2C(F)(F)F)C1 (configuration not stated) ?
Return: 1

Enquiry: # value lookup — system RAW-Dual (murine macrophage reporter line), readout viability score, item CC(C)(O)C#Cc1ccccn1
Return: 1.01

Enquiry: Value wanted: viability score (RAW-Dual (murine macrophage reporter line)) of entry Cc1ccc(C)c(Cc2cc([N+](=O)[O-])ccc2C)c1
Return: 0.996

Enquiry: Recall the recorded viability score for Cc1c(OCC(=O)OC(C)C)ccc2c3c(c(=O)oc12)CCCC3 with RAW-Dual (murine macrophage reporter line) and state it.
Return: 1.01

Enquiry: Recorded viability score for CCCCOc1ccc(S(=O)(=O)NCCCn2ccnc2)cc1 with RAW-Dual (murine macrophage reporter line), please?
Return: 0.987

Enquiry: Form: Entry = CCCOc1ccc(-c2ccc(-c3nc(Cc4ccc(OC)c(OC)c4)no3)cc2)cc1 | System = RAW-Dual (murine macrophage reporter line) | viability score = ____
Return: 1.01

Enquiry: What viability score appears in the records for this molecule with RAW-Dual (murine macrophage reporter line)? CN1CCN(CC(O)Cn2c3ccccc3c3ccccc32)CC1.O=C(O)C(=O)O (configuration not stated)
Return: 1.01

Enquiry: Query the reported viability score for RAW-Dual (murine macrophage reporter line); item: COc1ccc(OS(=O)(=O)c2ccc3cc(OC)ccc3c2)cc1
Return: 1

Enquiry: // fetch RAW-Dual (murine macrophage reporter line) viability score for CCCCc1nc(Cl)c(CO)n1Cc1ccc(-c2ccccc2-c2nnn[nH]2)cc1
Return: 1

Enquiry: Notebook: pull reported viability score for RAW-Dual (murine macrophage reporter line), entry CCC(=O)CC(O)(c1ccccc1)C(F)(F)F (configuration not stated)
Return: 0.996

Enquiry: Give recorded viability score with RAW-Dual (murine macrophage reporter line) for the following molecule: COCCn1c(C)cc(C(=O)CSc2ncnc3sc4c(c23)CCC4)c1C
Return: 0.994

Enquiry: Please tell me: viability score of CCN1CCCC1CNC(=O)c1cc(S(N)(=O)=O)ccc1OC (configuration not stated) , system RAW-Dual (murine macrophage reporter line)?
Return: 1

Enquiry: For the record COC(=O)C1=CN(CC2CCCO2)C=C(C(=O)OC)C1c1ccc(F)cc1 (configuration not stated) , what value of viability score is listed for RAW-Dual (murine macrophage reporter line)?
Return: 0.996

Enquiry: Return viability score measured with RAW-Dual (murine macrophage reporter line) given this molecule: O=C(C1=C(O)C(=O)N(c2nccs2)C1c1ccccc1)c1cc2ccccc2o1 (configuration not stated)
Return: 0.997

Enquiry: Request - read-out viability score | tested on RAW-Dual (murine macrophage reporter line) | molecule CN(C)CCOC(=O)COc1ccc(Cl)cc1.Cl
Return: 0.999

Enquiry: Request: viability score, test system RAW-Dual (murine macrophage reporter line), entry C[C@]1(O)C[C@@H](c2nc(-c3ccc4ccc(-c5ccccc5)nc4c3)c3c(N)nccn32)C1
Return: 1

Enquiry: Kindly state the measured viability score obtained for CCN1CC(CCN2CCOCC2)C(c2ccccc2)(c2ccccc2)C1=O.Cl.O (configuration not stated) with RAW-Dual (murine macrophage reporter line).
Return: 1

Enquiry: Query the reported viability score for RAW-Dual (murine macrophage reporter line); item: C(=C\c1ccccc1)/CN1CCN(C(c2ccccc2)c2ccccc2)CC1
Return: 0.979

Enquiry: Form: Entry = N#Cc1nc(-c2ccc(COc3ccccc3)o2)oc1N1CCc2ccccc2C1 | System = RAW-Dual (murine macrophage reporter line) | viability score = ____
Return: 1.01

Enquiry: Short answer please: viability score, RAW-Dual (murine macrophage reporter line), entry CC#CCn1c(N2CCC[C@@H](N)C2)nc2c1c(=O)n(Cc1nc(C)c3ccccc3n1)c(=O)n2C
Return: 1.01

Enquiry: Identify the measured viability score of Cl.Cl.O=C(O)COCCN1CCN(C(c2ccccc2)c2ccc(Cl)cc2)CC1 (configuration not stated) for RAW-Dual (murine macrophage reporter line).
Return: 0.987

Enquiry: Please provide the recorded viability score for Cc1cccc(NC(=O)Cc2nnc(NC(=O)Nc3ccc(F)cc3)s2)c1 , tested on RAW-Dual (murine macrophage reporter line).
Return: 1.01

Enquiry: Recorded viability score for CCN(CC)C(=O)N1CCN(C)CC1.O=C(O)CC(O)(CC(=O)O)C(=O)O with RAW-Dual (murine macrophage reporter line), please?
Return: 0.995

Enquiry: # query: viability score | item CCC(=O)Nc1ccc(S(=O)(=O)NCC2CCN(c3ncc(F)cn3)CC2)c(C)c1 | system: RAW-Dual (murine macrophage reporter line)
Return: 0.986

Enquiry: Observed viability score on RAW-Dual (murine macrophage reporter line) for C/C(O)=C(\C#N)C(=O)Nc1ccc(C(F)(F)F)cc1 , please.
Return: 1
